# targetDesc: T1, Human SIRPαV1 (NP_542970.1), Extracellular Domain + His-Tag (human, UniProt P78324 31-373)
# T1 construct: also called huSIRPαV1; hSIRPαV1; not shown: His-Tag
# T1 sequence (P78324 other isoform, or with tags, fused parts or gaps): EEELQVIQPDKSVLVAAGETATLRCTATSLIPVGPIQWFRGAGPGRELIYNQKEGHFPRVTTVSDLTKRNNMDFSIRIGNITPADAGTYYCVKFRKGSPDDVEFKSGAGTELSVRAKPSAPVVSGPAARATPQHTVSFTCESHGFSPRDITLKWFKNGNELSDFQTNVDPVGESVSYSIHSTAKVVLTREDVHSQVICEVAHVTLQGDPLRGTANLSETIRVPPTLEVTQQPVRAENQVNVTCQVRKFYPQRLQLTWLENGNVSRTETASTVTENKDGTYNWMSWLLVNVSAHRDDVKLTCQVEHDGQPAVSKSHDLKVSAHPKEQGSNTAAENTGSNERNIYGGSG
# assayOverview: SPR, antibody captured on Protein A/G, ECD-His analyte, 1:1 fit
propertyMeasured: kon (M⁻¹ s⁻¹)
Quick reminder: number only, in M⁻¹ s⁻¹, skip the unit.

Lookup: Look at this binder and give its reported kon. Antibody A2 (antibody, human IgG1, kappa, L234A L235A, V domains shown) VH: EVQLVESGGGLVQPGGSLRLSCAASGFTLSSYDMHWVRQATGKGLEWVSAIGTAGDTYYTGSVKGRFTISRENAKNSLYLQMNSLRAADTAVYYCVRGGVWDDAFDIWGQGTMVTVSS VL: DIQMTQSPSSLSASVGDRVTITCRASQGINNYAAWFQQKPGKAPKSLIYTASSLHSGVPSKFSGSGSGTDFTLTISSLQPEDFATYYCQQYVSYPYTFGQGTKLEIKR
Found: 729000

The reported measurements were obtained from patent US20230012273A1.
